tested target: human sphingosine-1-phosphate receptor 1 (S1P1) (Homo sapiens (Human), UniProt P21453)
procedure summary: β-Arrestin2 recruitment assay (PathHunter), S1P1 CHO-K1 cells
Assay type: cell-based
run parameters: β-arrestin2 recruitment, S1P1 CHO-K1 cells
Sequence (P21453 whole entry, looked up): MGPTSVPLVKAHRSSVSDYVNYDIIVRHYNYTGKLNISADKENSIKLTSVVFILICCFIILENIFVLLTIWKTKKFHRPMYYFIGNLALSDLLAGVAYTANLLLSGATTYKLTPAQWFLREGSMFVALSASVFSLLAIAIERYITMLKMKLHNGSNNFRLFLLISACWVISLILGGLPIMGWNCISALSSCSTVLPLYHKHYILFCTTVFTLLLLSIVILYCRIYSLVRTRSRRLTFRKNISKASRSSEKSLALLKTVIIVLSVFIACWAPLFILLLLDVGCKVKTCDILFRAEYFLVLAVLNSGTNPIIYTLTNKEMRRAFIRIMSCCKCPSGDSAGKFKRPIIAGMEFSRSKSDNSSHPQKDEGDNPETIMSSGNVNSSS
Sequence (P32121 whole entry partner, looked up): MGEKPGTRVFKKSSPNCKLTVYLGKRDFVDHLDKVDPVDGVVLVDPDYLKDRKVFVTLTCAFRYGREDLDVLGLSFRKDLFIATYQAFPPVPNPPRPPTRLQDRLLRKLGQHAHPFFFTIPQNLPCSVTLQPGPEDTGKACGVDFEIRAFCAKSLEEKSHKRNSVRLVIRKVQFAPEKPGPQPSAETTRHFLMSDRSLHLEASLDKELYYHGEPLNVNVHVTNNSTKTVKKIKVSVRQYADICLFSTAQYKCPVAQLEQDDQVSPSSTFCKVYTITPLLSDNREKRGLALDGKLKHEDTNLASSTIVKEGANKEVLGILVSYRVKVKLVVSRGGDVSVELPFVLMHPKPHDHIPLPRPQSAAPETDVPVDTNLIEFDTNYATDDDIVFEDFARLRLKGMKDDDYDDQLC
quantity name: hS1P1 B-arrestin2 pEC50

hS1P1 B-arrestin2 pEC50 reading for CCC1(CC)CC(=O)c2cc(-c3nc(-c4cnccc4C)no3)ccc2O1 : >5

hS1P1 B-arrestin2 pEC50 in this record for CC(C)n1nnc2cc(-c3nc(-c4ccccc4Cl)no3)ccc21 : >5

Brc1ccccc1-c1nc(-c2ccc3c(c2)nnn3Cc2cccnc2)no1 has a reported hS1P1 B-arrestin2 pEC50 of <5

The compound CC(C)(O)Cn1nnc2cc(-c3nc(-c4cocn4)no3)ccc21 showed hS1P1 B-arrestin2 pEC50 equal to <5

Record CCC1(CC)CC(=O)c2cc(-c3nc(-c4ccnc(F)c4)no3)ccc2O1 . Reported hS1P1 B-arrestin2 pEC50: >5

* * *

tested target: human sphingosine-1-phosphate receptor 1 (S1P1) (Homo sapiens (Human), UniProt P21453)
procedure summary: Inhibition of cAMP production (HTRF cAMP HiRange), S1P1 CHO-K1 cells
Assay type: cell-based
run parameters: CHO-K1; efficacy (SPAN) normalized to fingolimod; read-out: hS1P1 cAMP SPAN
Sequence (P21453 whole entry, looked up): as the sequence (P21453 whole entry, looked up) above
quantity name: Emax

Looking up CC(C)n1nnc2cc(-c3ncc(-c4cccc(F)c4)s3)ccc21 , I found its Emax recorded as < 75%

The compound listed as CCC1(CC)CC(=O)c2cc(-c3nc(-c4ccncc4C)no3)ccc2O1 shows Emax equal to > 75%

* * *

Each item that follows carries a reported hS1P1 B-arrestin2 pEC50.
tested target: human sphingosine-1-phosphate receptor 1 (S1P1) (Homo sapiens (Human), UniProt P21453)
procedure summary: β-Arrestin2 recruitment assay (PathHunter), S1P1 CHO-K1 cells
Assay type: cell-based
run parameters: β-arrestin2 recruitment, S1P1 CHO-K1 cells
Procedure: Stable clonal Chinese hamster ovary K1 (CHO-K1) cells co-expressing EA-β-arrestin2 and the human sphingosine-1-phosphate receptor 1 (NM_001400, S1P1) with a C-terminal Prolink™ tag were purchased from DiscoverX corporation (Cat #: 93-0207C2). […] Agonist-promoted β-arrestin2 recruitment to the sphingosine-1-phosphate 1 receptor was determined using the β-arrestin PathHunter®) Detection kit (DiscoverX Corporation, Cat #: 93-0001). […]

Worked examples, 8 compounds total:
compound=COc1cncc(-c2nc(-c3ccc4c(c3)nnn4C(C)C)no2)c1 quantity_name="hS1P1 B-arrestin2 pEC50" reported_measurement=<5
compound=CCC1(CC)CC(=O)c2cc(-c3nc(-c4ccc5c(c4)nnn5C(C)C)no3)ccc2O1 quantity_name="hS1P1 B-arrestin2 pEC50" reported_measurement=<5
compound=Cc1cnccc1-c1nc(-c2ccc3c(c2)nnn3C(C)C)no1 quantity_name="hS1P1 B-arrestin2 pEC50" reported_measurement=<5
compound=COc1ccccc1-c1coc(-c2ccc3c(c2)nnn3C(C)C)n1 quantity_name="hS1P1 B-arrestin2 pEC50" reported_measurement=>5
compound=N#Cc1cc(-c2nc(-c3ccc4c(c3)CCC(=O)N4)no2)ccc1NCCF quantity_name="hS1P1 B-arrestin2 pEC50" reported_measurement=>5
compound=CC(C)n1nnc2cc(-c3noc(-c4ncccc4O)n3)ccc21 quantity_name="hS1P1 B-arrestin2 pEC50" reported_measurement=<5
compound=CC(C)(CO)n1nnc2cc(-c3noc(-c4cccnc4F)n3)ccc21 quantity_name="hS1P1 B-arrestin2 pEC50" reported_measurement=<5
compound=CC(C)n1nnc2cc(-c3nc(-c4ccc(OCc5ccccc5)cc4)no3)ccc21 quantity_name="hS1P1 B-arrestin2 pEC50" reported_measurement=<5

Item: CC(C)(O)Cn1nnc2cc(-c3nc(-c4ccc5nonc5c4)no3)ccc21 | hS1P1 B-arrestin2 pEC50: <5

compound CCCC1(CCC)CC(=O)c2cc(-c3nc(-c4cccnc4)no3)ccc2O1 , hS1P1 B-arrestin2 pEC50 observed: <5

hS1P1 B-arrestin2 pEC50 recorded for this compound, CC(C)n1ccc2cc(-c3noc(-c4cccnc4)n3)ccc21 , is <5

The measured hS1P1 B-arrestin2 pEC50 associated with N#Cc1cc(-c2nc(-c3ccc4c(c3)NC(=O)C4)no2)ccc1NCC1CC1 reads >5

C=CCNc1ccc(-c2nc(-c3ccc4c(c3)nnn4C(C)C)no2)cc1C#N has a reported hS1P1 B-arrestin2 pEC50 of >5

Value of measured hS1P1 B-arrestin2 pEC50 for the entry Cc1ccccc1-c1noc(-c2ccc3c(c2)nnn3C(C)C)n1 : >5

# compound CCC1(CC)CC(=O)c2cc(-c3nc(-c4ccc5sc(N)nc5c4)no3)ccc2O1 ; its hS1P1 B-arrestin2 pEC50 = <5

Record CCCn1nnc2cc(-c3nc(-c4cc(C)cc(C)c4)no3)ccc21 . Reported hS1P1 B-arrestin2 pEC50: <5

Measured hS1P1 B-arrestin2 pEC50 of CCC1(CC)CC(=O)c2cc(-c3nc(-c4ccc5[nH]cnc5c4)no3)ccc2O1 : >5

Query CCC1(CC)CC(=O)c2cc(-c3nc(-c4ccnc(C(F)(F)F)c4)no3)ccc2O1 yields hS1P1 B-arrestin2 pEC50 of <5
